Values compiled from paper PMC7221793.

# ASSAY_PROCEDURE: Metabolic stability in human liver S9 fraction
# Type: in vitro ADME
# REPORTED_CONDITIONS: human, liver S9 fraction, human liver S9, −Cofactors, 1 μM

SMILES_STRING: COc1cc(/C=C/C2=CC(=O)[C@H]3C[C@@H]2C3(C)C)cc(O)c1O
half-life at 1 µM: < 30 min

----------
# ASSAY_PROCEDURE: Bioactivation studies in rat liver S9 fraction
# Assay type: in vitro ADME
# REPORTED_CONDITIONS: Sprague-Dawley, rat, liver S9 fraction, pH 7.4, cofactors: GSH (1 mM), rat liver S9 1 mg/mL, read-out: SP-8356 (% Remaining at 60 min)

SMILES_STRING: COc1cc(/C=C/C2=CC(=O)[C@H]3C[C@@H]2C3(C)C)cc(O)c1O
remaining at 1 h, 5 µM, %: 29.1

----------
# ASSAY_PROCEDURE: Pharmacokinetic studies in dogs (single i.v. and p.o. dose)
# Format: in vivo
# REPORTED_CONDITIONS: male, Beagle, plasma, iv, dog, 50 mg/kg
MEASUREMENT_TYPE: clearance (mL/min/kg)

SMILES_STRING: COc1cc(/C=C/C2=CC(=O)[C@H]3C[C@@H]2C3(C)C)cc(O)c1O
MEASUREMENT_TYPE: clearance
RECORDED_RESULT: 66.7

----------
# ASSAY_PROCEDURE: Bioactivation studies in rat liver S9 fraction
# Format: in vitro ADME
# REPORTED_CONDITIONS: Sprague-Dawley, rat, liver S9 fraction, pH 7.4, cofactors: AA (1 mM), rat liver S9 1 mg/mL, read-out: SP-8356 (% Remaining at 60 min)
MEASUREMENT_TYPE: remaining at 1 h, 5 µM (%)

SMILES_STRING: COc1cc(/C=C/C2=CC(=O)[C@H]3C[C@@H]2C3(C)C)cc(O)c1O
MEASUREMENT_TYPE: remaining at 1 h, 5 µM
RECORDED_RESULT: 106

----------
# ASSAY_PROCEDURE: Metabolic stability in rat liver S9 fraction
# Assay type: in vitro ADME
# REPORTED_CONDITIONS: Sprague-Dawley, liver S9 fraction; rat liver S9, +Cofactors

COMPOUND: COc1cc(/C=C/C2=CC(=O)[C@H]3C[C@@H]2C3(C)C)cc(O)c1O [SP-8356]
CLint scaled at 1 µM: 2900 mL/min/kg

----------
# ASSAY_PROCEDURE: In vivo metabolite identification, pooled dog plasma (Q-TOF LC-MS/MS)
# REPORTED_CONDITIONS: male, Beagle, iv, i.v. SP-8356 50 mg/kg, time of highest AR

COMPOUND: CC1(C)[C@@H]2C[C@H]1C(/C=C/c1cc(O)c(O)c(O)c1)=CC2=O
Tmax, min: 4.98
//
COMPOUND: COc1cc(C=CC2=CC(=O)C3CC2C3(C)C)cc(OC2OC(C(=O)O)C(O)C(O)C2O)c1OC1OC(C(=O)O)C(O)C(O)C1O (centres unmarked)
Tmax, min: 60

----------
# ASSAY_PROCEDURE: Pharmacokinetic studies in dogs (single i.v. and p.o. dose)
# Format: in vivo
# REPORTED_CONDITIONS: male, Beagle, iv, dog, 50 mg/kg, plasma
MEASUREMENT_TYPE: AUC(0-t) (ng·h/mL)

SMILES_STRING: COc1cc(/C=C/C2=CC(=O)[C@H]3C[C@@H]2C3(C)C)cc(O)c1O
RECORDED_RESULT: 12400
